Please provide measured MCC for the entries that follow.
Experiment: Cytotoxicity against HEL cells assessed as alteration in cell morphology
Assay type: cell-based
Details: human

Field: MCC. Fill in for each record below.
1. Nc1nc2c(ncn2COCCO)c(=O)[nH]1
2. O=c1[nH]c(=O)n([C@H]2C[C@H](O)[C@@H](CO)O2)cc1/C=C/Br
3. CCCCCc1ccc(-c2cc3cn([C@@H]4C[C@H](CO)[C@@H](O)C4)c(=O)nc3o2)cc1
4. CCCCCc1ccc(-c2cc3cn([C@H]4C[C@H](O)[C@@H](CO)O4)c(=O)nc3o2)cc1

Result:
1: > 200 µM; 2: > 200 µM; 3: > 50 µM; 4: > 20 µM

Where do the numbers come from? From ChEMBL document CHEMBL1138364.
